Biological target: Albumin (Homo sapiens)
Sequence (P02768 whole entry): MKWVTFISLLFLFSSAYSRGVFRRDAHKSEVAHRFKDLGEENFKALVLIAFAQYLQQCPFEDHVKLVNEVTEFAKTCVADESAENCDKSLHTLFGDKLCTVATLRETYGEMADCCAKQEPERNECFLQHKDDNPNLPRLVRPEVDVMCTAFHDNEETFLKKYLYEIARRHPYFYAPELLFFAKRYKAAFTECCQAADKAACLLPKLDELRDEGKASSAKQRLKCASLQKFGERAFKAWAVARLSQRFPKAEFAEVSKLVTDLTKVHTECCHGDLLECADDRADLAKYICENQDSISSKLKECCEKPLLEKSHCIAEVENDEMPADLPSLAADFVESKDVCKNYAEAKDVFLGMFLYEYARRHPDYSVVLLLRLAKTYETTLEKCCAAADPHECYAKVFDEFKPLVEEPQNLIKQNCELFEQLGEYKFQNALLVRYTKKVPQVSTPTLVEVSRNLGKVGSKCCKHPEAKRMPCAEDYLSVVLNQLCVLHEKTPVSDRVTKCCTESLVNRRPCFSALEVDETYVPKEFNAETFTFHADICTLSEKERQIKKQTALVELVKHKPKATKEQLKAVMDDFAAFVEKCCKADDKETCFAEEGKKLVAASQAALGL
Experiment: Association constant for the binding of the carboxylate form to human serum albumin;(M aa)e-1
property-name: K

{"compound": "CC[C@@]1(O)C(=O)OCc2c1cc1n(c2=O)Cc2cc3ccccc3nc2-1", "K": "4700 1/Maa"}

**Query** For the compound CC[C@@]1(O)C(=O)OCc2c1cc1n(c2=O)Cc2cc3cc(O)ccc3nc2-1 [HYDROXYCAMPTOTHECIN] , report K.
**Result** 260 1/Maa

**Query** Quick one: give measured K for CCC1(O)C(=O)OCc2c1cc1n(c2=O)Cc2cc3cc4c(cc3nc2-1)OCO4 (centres undefined)
**Result** 2200 1/Maa

**Query** State, in one line, measured K of CCC1(O)C(=O)OCc2c1cc1n(c2=O)Cc2cc3c(Cl)c4c(cc3nc2-1)OCO4 (centres undefined)
**Result** 1200 1/Maa

* * *

# T bound annotations
Species: Homo sapiens
Assay: Excited-state lifetime value for carboxylate form of compound bound to human serum albumin
Format: ADME
Conditions: in vitro
The reply should contain only the number, in ns.

Recorded T bound, per entry:
{"compound": "CCC1(O)C(=O)OCc2c1cc1n(c2=O)Cc2cc3cc4c(cc3nc2-1)OCO4 (stereo unspecified)", "unit-of-measure": "ns", "T bound": 1.3}
{"compound": "CCC1(O)C(=O)OCc2c1cc1n(c2=O)Cc2cc3c(Cl)c4c(cc3nc2-1)OCO4 (stereo unspecified)", "unit-of-measure": "ns", "T bound": 1.1}
{"compound": "CCc1c2c(nc3ccc(C4CCN(C(=O)OC)CC4)cc13)-c1cc3c(c(=O)n1C2)COC(=O)C3(O)CC (stereo unspecified)", "unit-of-measure": "ns", "T bound": 4}
{"compound": "CC[C@@]1(O)C(=O)OCc2c1cc1n(c2=O)Cc2cc3ccccc3nc2-1 [CAMPTOTHECIN]", "unit-of-measure": "ns", "T bound": 1.3}
{"compound": "CC[C@@]1(O)C(=O)OCc2c1cc1n(c2=O)Cc2cc3c(CN(C)C)c(O)ccc3nc2-1 [TOPOTECAN]", "unit-of-measure": "ns", "T bound": 6.1}

# input for lookup
**Query** Read off the recorded T bound for CC[C@@]1(O)C(=O)OCc2c1cc1n(c2=O)Cc2cc3cc(O)ccc3nc2-1 [HYDROXYCAMPTOTHECIN]
**Result** 5.5

* * *

Test: Excited-state lifetime value for free lactone form of compound in solution
Assay type: ADME
property-name: T free (ns)
# value in ns; strip the unit string

The examples below pair each entry with its known result.
{"compound": "CC[C@@]1(O)C(=O)OCc2c1cc1n(c2=O)Cc2cc3cc(O)ccc3nc2-1 [HYDROXYCAMPTOTHECIN]", "observed-measurement": 4}
{"compound": "CCC1(O)C(=O)OCc2c1cc1n(c2=O)Cc2cc3cc4c(cc3nc2-1)OCO4 (stereo unspecified)", "observed-measurement": 2}
{"compound": "CCc1c2c(nc3ccc(C4CCN(C(=O)OC)CC4)cc13)-c1cc3c(c(=O)n1C2)COC(=O)C3(O)CC (stereo unspecified)", "observed-measurement": 3.7}

**Query** Tell me T free reported for CCC1(O)C(=O)OCc2c1cc1n(c2=O)Cc2cc3c(Cl)c4c(cc3nc2-1)OCO4 (stereo unspecified)
**Result** 1.9

**Query** For the compound `CC[C@@]1(O)C(=O)OCc2c1cc1n(c2=O)Cc2cc3ccccc3nc2-1` , give its reported T free.
**Result** 4.2

**Query** Given the compound `CC[C@@]1(O)C(=O)OCc2c1cc1n(c2=O)Cc2cc3c(CN(C)C)c(O)ccc3nc2-1` , write its reported T free.
**Result** 6

* * *

Assay: Half-life in PBS buffer solution in the presence of human serum albumin
Assay type: ADME
Settings: PBS buffer with human serum albumin
// reported half-life for each item listed
Answer format: numeric, min implied, no suffix.

Reference set, count: 6
{"compound": "CCC1(O)C(=O)OCc2c1cc1n(c2=O)Cc2cc3c(Cl)c4c(cc3nc2-1)OCO4 (configuration not stated)", "unit-of-measure": "min", "observed-measurement": 16.9}
{"compound": "CC[C@@]1(O)C(=O)OCc2c1cc1n(c2=O)Cc2cc3ccccc3nc2-1", "unit-of-measure": "min", "observed-measurement": 12.5}
{"compound": "CC[C@@]1(O)C(=O)OCc2c1cc1n(c2=O)Cc2cc3cc(O)ccc3nc2-1 [HYDROXYCAMPTOTHECIN]", "unit-of-measure": "min", "observed-measurement": 21.1}
{"compound": "CCc1c2c(nc3ccc(C4CCN(C(=O)OC)CC4)cc13)-c1cc3c(c(=O)n1C2)COC(=O)C3(O)CC (configuration not stated)", "unit-of-measure": "min", "observed-measurement": 29}
{"compound": "CCC1(O)C(=O)OCc2c1cc1n(c2=O)Cc2cc3cc4c(cc3nc2-1)OCO4 (configuration not stated)", "unit-of-measure": "min", "observed-measurement": 20.7}
{"compound": "CC[C@@]1(O)C(=O)OCc2c1cc1n(c2=O)Cc2cc3c(CN(C)C)c(O)ccc3nc2-1", "unit-of-measure": "min", "observed-measurement": 28.9}

Turning now to a further record.
**Query** Return reported half-life. Input compound: `CC[C@@]1(O)C(=O)OCc2c1cc1n(c2=O)Cc2cc3c(N)cccc3nc2-1`
**Result** 23.4

* * *

Reported T bound values for a set of compounds
Organism: Homo sapiens
Test: Excited-state lifetime value for lactone form of compound bound to human serum albumin
Assay type: ADME
Only the number, expressed in ns, is required.

{"compound": "CCC1(O)C(=O)OCc2c1cc1n(c2=O)Cc2cc3cc4c(cc3nc2-1)OCO4 (stereo unspecified)", "T bound / ns": 1.3}
{"compound": "CC[C@@]1(O)C(=O)OCc2c1cc1n(c2=O)Cc2cc3c(CN(C)C)c(O)ccc3nc2-1 [TOPOTECAN]", "T bound / ns": 6}
{"compound": "CCC1(O)C(=O)OCc2c1cc1n(c2=O)Cc2cc3c(Cl)c4c(cc3nc2-1)OCO4 (stereo unspecified)", "T bound / ns": 1.9}
{"compound": "CC[C@@]1(O)C(=O)OCc2c1cc1n(c2=O)Cc2cc3ccccc3nc2-1 [CAMPTOTHECIN]", "T bound / ns": 2.7}
{"compound": "CC[C@@]1(O)C(=O)OCc2c1cc1n(c2=O)Cc2cc3cc(O)ccc3nc2-1 [HYDROXYCAMPTOTHECIN]", "T bound / ns": 5.4}

**Query** Please indicate T bound recorded for CCc1c2c(nc3ccc(C4CCN(C(=O)OC)CC4)cc13)-c1cc3c(c(=O)n1C2)COC(=O)C3(O)CC (stereo unspecified)
**Result** 3.7

* * *

Experiment: Excited-state lifetime value for free carboxylate form of compound in solution
Assay type: ADME
property-name: T free
Please append the unit to your numeric answer.

Examples from the recorded data:
{"compound": "CCC1(O)C(=O)OCc2c1cc1n(c2=O)Cc2cc3c(Cl)c4c(cc3nc2-1)OCO4 (stereo unspecified)", "T free": "2.5 ns"}
{"compound": "CC[C@@]1(O)C(=O)OCc2c1cc1n(c2=O)Cc2cc3c(CN(C)C)c(O)ccc3nc2-1 [TOPOTECAN]", "T free": "6.1 ns"}
{"compound": "CC[C@@]1(O)C(=O)OCc2c1cc1n(c2=O)Cc2cc3cc(O)ccc3nc2-1 [HYDROXYCAMPTOTHECIN]", "T free": "4 ns"}
{"compound": "CC[C@@]1(O)C(=O)OCc2c1cc1n(c2=O)Cc2cc3ccccc3nc2-1 [CAMPTOTHECIN]", "T free": "4.3 ns"}
{"compound": "CCC1(O)C(=O)OCc2c1cc1n(c2=O)Cc2cc3cc4c(cc3nc2-1)OCO4 (stereo unspecified)", "T free": "2.4 ns"}

**Query** For the compound CCc1c2c(nc3ccc(C4CCN(C(=O)OC)CC4)cc13)-c1cc3c(c(=O)n1C2)COC(=O)C3(O)CC (stereo unspecified) , give its reported T free.
**Result** 4 ns

* * *

Target: Albumin (Homo sapiens)
Assay: Binding parameter of the carboxylate form to human serum albumin; n value
property-name: Activity
# answer = number (no unit)

In the examples that follow, each entry is paired with its recorded Activity.
{"molecule": "CC[C@@]1(O)C(=O)OCc2c1cc1n(c2=O)Cc2cc3ccccc3nc2-1", "Activity": 2.3}
{"molecule": "CCC1(O)C(=O)OCc2c1cc1n(c2=O)Cc2cc3c(Cl)c4c(cc3nc2-1)OCO4 (centres undefined)", "Activity": 1.6}
{"molecule": "CCC1(O)C(=O)OCc2c1cc1n(c2=O)Cc2cc3cc4c(cc3nc2-1)OCO4 (centres undefined)", "Activity": 1.7}

**Query** Consider the molecule CC[C@@]1(O)C(=O)OCc2c1cc1n(c2=O)Cc2cc3cc(O)ccc3nc2-1 [HYDROXYCAMPTOTHECIN] and give its recorded Activity.
**Result** 1.7
